biological target: APOL1 G2 (Homo sapiens, UniProt O14791, DEL388-389); test: Rescue of HEK293 cell death caused by overexpression of APOL1 (CellTiter-Glo luminescence), HEK293/T-REx APOL1 G2/clone #2; conditions: reversal of cell death caused by overexpression of APOL1; geometric mean of at least 2 assay runs, † = single assay run (technical duplicate)
Sequence (O14791 with tags, fused parts or gaps DEL388-389): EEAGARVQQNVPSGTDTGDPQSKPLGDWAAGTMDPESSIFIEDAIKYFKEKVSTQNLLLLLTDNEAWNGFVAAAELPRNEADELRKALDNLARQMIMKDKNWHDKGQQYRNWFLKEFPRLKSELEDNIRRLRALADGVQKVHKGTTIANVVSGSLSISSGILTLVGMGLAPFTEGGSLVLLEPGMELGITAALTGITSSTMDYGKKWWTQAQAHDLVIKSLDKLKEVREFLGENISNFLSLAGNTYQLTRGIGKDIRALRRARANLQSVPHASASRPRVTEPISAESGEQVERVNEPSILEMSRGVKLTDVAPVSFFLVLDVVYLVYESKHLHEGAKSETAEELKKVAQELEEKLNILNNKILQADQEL
Mark each entry Criterion met if its EC50 sits below 200 nM, and Criterion not met for all others.

Compound | Group Label
CS(=O)(=O)c1ccc(OC[C@@H](O)CN[C@H]2C[C@H](c3cccc(Cl)c3)C2)cc1 [Compound 66] | Criterion not met
CN=S(C)(=O)c1ccc(OC[C@@H]2CN(CCc3cc(Cl)cc(C#N)c3)CCN2)cc1 (single isomer, unassigned) [Compound 187] | Criterion not met
CS(=O)(=O)c1ccc(OCC2CCCCN(CCc3cccc(Cl)c3)C2)cc1 (single isomer, unassigned) [Compound 3] | Criterion not met
CC1(C)CC(COc2ccc(S(C)(=O)=O)cc2)CN1CCc1cccc(Cl)c1 (stereo not shown) [Compound 42] | Criterion met
C[C@]1(O)CN(CCc2cccc(Cl)c2)C[C@H]1COc1ccc(S(C)(=O)=O)cc1 (single isomer, unassigned) [Compound 210] | Criterion not met
C[C@@H]1C[C@H](COc2ccc(S(C)(=O)=O)cc2)CN1CC(O)c1cc(C#N)cc(C#N)c1 (single isomer, unassigned) [Compound 119] | Criterion met
CN=S(C)(=O)c1ccc(OC[C@@H]2CN(CCc3cccc(C#N)c3)C[C@H]2C)cc1 (stereo partly shown) [Compound 169] | Criterion met
